test system: VEGFR2; construct: gene KDR; settings: concentration: 1 μM, replicates: in singlicate; n = 1;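 further: KINOMEscan kinase panel screen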
PROPERTY: %Inh (%)
Provide only the numeric value, understood in %.

Observe how each entry below is paired with its result.
- SMILES_STR: "Cc1ccc(NC(=O)Nc2cc(C(C)(C)C)nn2-c2ccccc2)cc1"
  ASSAY_SYSTEM: "VEGFR2"
  UNIT_TAG: "%"
  %Inh: 6
- SMILES_STR: "Cc1ccc(NC(=O)Nc2cccc(Cl)c2)cc1-c1ccc(C(=O)Nc2ccncc2)cc1"
  ASSAY_SYSTEM: "VEGFR2"
  UNIT_TAG: "%"
  %Inh: 16
- SMILES_STR: "Cc1csc(-c2nc(Nc3ccncc3)c3ccccc3n2)n1"
  ASSAY_SYSTEM: "VEGFR2"
  UNIT_TAG: "%"
  %Inh: 36
- SMILES_STR: "Cl.NC(=O)c1cccc(Nc2nccc(Nc3ccc(Oc4cccc(Cl)c4)c(Cl)c3)n2)c1"
  ASSAY_SYSTEM: "VEGFR2"
  UNIT_TAG: "%"
  %Inh: 0
- SMILES_STR: "Cl.c1ccc(-c2n[nH]cc2-c2ccnc(-c3ccc(CN4CCOCC4)cc3)c2)nc1"
  ASSAY_SYSTEM: "VEGFR2"
  UNIT_TAG: "%"
  %Inh: 0

Please fill in: %Inh reported for Cc1cccc(-c2nc(-c3ccc(S(C)(=O)=O)cc3)sc2-c2ccnc(NCCc3ccccc3)c2)c1 = 0

Please fill in: %Inh reported for CN1C(=O)C(Nc2ccc(Cl)c(C(=O)O)c2)=C(c2ccc(Cl)cc2)C1=O = 6

Please fill in: %Inh reported for Cc1cccc(-c2nc(Nc3ccc4[nH]ncc4c3)c3ccccc3n2)n1 = 23

Please fill in: %Inh reported for C[C@@H]1CCCCN1c1cc(-c2ccc3c(N)n[nH]c3c2)nc(N)n1 = 0

Please fill in: %Inh reported for COC(=O)c1c(-c2ccccc2)c2cc(C(=O)O)ccc2c(=O)n1Cc1ccccc1 = 0

Please fill in: %Inh reported for Cn1ccc2ncnc(Oc3cccc(C(=O)Nc4ccccc4)c3)c21 = 59

Please fill in: %Inh reported for CC(=O)Nc1nc2cnc(Nc3cc(NC(=O)c4cccc(CCC#N)c4)ccc3C)nc2s1 = 29

* * *

system: DLK; construct: gene MAP3K12; conditions: concentration: 1 μM, replicates: in singlicate; n = 1
PROPERTY: %Inh (%)
Provide only the numeric value, understood in %.

Observe how each entry below is paired with its result.
- MOLECULE: "Cc1cccc(-c2nc(-c3ccc(S(C)(=O)=O)cc3)sc2-c2ccnc(NCCc3ccccc3)c2)c1"
  UNIT_TAG: "%"
  %Inh: 0
- MOLECULE: "Cc1c(Cn2ccn3c(=O)cc(N4CCOCC4)nc23)cccc1C(F)(F)F"
  UNIT_TAG: "%"
  %Inh: 0
- MOLECULE: "O=C(Nc1n[nH]c2cc(-c3cccc(F)c3F)ccc12)C1CC1"
  UNIT_TAG: "%"
  %Inh: 0
- MOLECULE: "COc1ccccc1-c1ccc2c(NC(=O)C3CC3)n[nH]c2n1"
  UNIT_TAG: "%"
  %Inh: 5
- MOLECULE: "COc1cccc(-c2cc(-c3c[nH]nc3-c3ccccn3)ccn2)c1"
  UNIT_TAG: "%"
  %Inh: 28
- MOLECULE: "Cc1csc(-c2nc(Nc3ccncc3)c3ccccc3n2)n1"
  UNIT_TAG: "%"
  %Inh: 0

Please fill in: %Inh reported for O=c1cc(N2CCOCC2)nc2n(Cc3cccc(Cl)c3Cl)ccn12 = 0

Please fill in: %Inh reported for COc1cccc(NC(=O)NC2CCN(c3ccnc(Nc4ccc(F)cc4)n3)C2)c1 (stereo not drawn) = 0

Please fill in: %Inh reported for Cc1nnc(-c2ccc3occ(-c4ccc(S(C)=O)cc4)c3c2)[nH]1 (stereo not drawn) = 0
